Consider the following IC50 data for human ACC2 (Homo sapiens (Human), UniProt O00763), collected from several reports.
Binary call on IC50 with cut-off 300 nM: strictly below means criterion met, and equality or higher means criterion not met.

IN: Please check: IC50 for Cc1ccc(-c2ccc(Cl)cc2)cc1C1=C(O)C(C)(C(C)C)NC1=O (centres unmarked) , strictly under 300 nM or not?
OUT: criterion not met

IN: Please check: IC50 for CCN(CC)CCOc1ccc(C#Cc2ccc(CC(C)NC(C)=O)cc2)cc1 (centres unmarked) , strictly under 300 nM or not?
OUT: criterion not met

IN: Please check: IC50 for "CCCOc1ccc(N2CC[C@@H](Oc3ccc([C@H](C)NC(C)=O)cc3)C2)c(OC)n1" , strictly under 300 nM or not?
OUT: criterion met

IN: Please check: IC50 for COc1ccc(C#Cc2ccc(CC(C)NC(C)=O)cc2)c(C)c1 (centres unmarked) , strictly under 300 nM or not?
OUT: criterion not met

IN: Please check: IC50 for "C[C@H](NC(=O)N(C)C)c1ccc(O[C@@H]2CCN(c3ccc(OCC4CC4)cc3)C2)cc1" , strictly under 300 nM or not?
OUT: criterion met

IN: Please check: IC50 for CC(=O)N[C@@H](C)c1ccc(OC2CCN(c3ccc(OCCCF)nc3)C2)cc1 (some centres unmarked) , strictly under 300 nM or not?
OUT: criterion not met

IN: Please check: IC50 for CC(=O)NC(C)CCc1ccc(Oc2cnc(OC(C)C)nc2)cc1 (centres unmarked) , strictly under 300 nM or not?
OUT: criterion not met

IN: Please check: IC50 for "O=C1OC2(CCCCC2)C(O)=C1c1cc(-c2ccc(F)c(F)c2)ccc1Cl" , strictly under 300 nM or not?
OUT: criterion not met

IN: Please check: IC50 for CCOc1ccc(C#Cc2ccc(C(C)C(=O)NCc3cnco3)cc2)cc1 (centres unmarked) , strictly under 300 nM or not?
OUT: criterion not met

IN: Please check: IC50 for CCCOc1ccc(C#Cc2ccc(C(C)CNC(=O)C3CC3)cc2)cc1 (centres unmarked) , strictly under 300 nM or not?
OUT: criterion met

IN: Please check: IC50 for COc1ccccc1Oc1ncc(C#Cc2ccc(CC(C)NC(C)=O)cc2)cn1 (centres unmarked) , strictly under 300 nM or not?
OUT: criterion not met

IN: Please check: IC50 for CCOc1ccc(N2CCC(c3ccc(C(C)C(N)=O)cc3)CC2)cc1 (centres unmarked) , strictly under 300 nM or not?
OUT: criterion not met

IN: Please check: IC50 for CC(=O)NC(C)Cc1ccc(C#Cc2ccnc(N3CCN(S(C)(=O)=O)CC3)n2)cc1 (centres unmarked) , strictly under 300 nM or not?
OUT: criterion not met

IN: Please check: IC50 for CC(=O)NC(C)Cc1ccc(C#Cc2cccc(C(=O)NCC(F)(F)F)c2)cc1 (centres unmarked) , strictly under 300 nM or not?
OUT: criterion not met

IN: Please check: IC50 for "CC(=O)N[C@@H](C)c1ccc(O[C@@H]2CCN(c3ccnc(OC4Cc5ccccc5C4)c3)C2)cc1" , strictly under 300 nM or not?
OUT: criterion met

IN: Please check: IC50 for CC(=O)NC(C)Cc1ccc(C#Cc2ccnc(N(C)C3CCCC3)n2)cc1 (centres unmarked) , strictly under 300 nM or not?
OUT: criterion not met
